Target: UniProt:P03372
Sequence (P03372 whole entry): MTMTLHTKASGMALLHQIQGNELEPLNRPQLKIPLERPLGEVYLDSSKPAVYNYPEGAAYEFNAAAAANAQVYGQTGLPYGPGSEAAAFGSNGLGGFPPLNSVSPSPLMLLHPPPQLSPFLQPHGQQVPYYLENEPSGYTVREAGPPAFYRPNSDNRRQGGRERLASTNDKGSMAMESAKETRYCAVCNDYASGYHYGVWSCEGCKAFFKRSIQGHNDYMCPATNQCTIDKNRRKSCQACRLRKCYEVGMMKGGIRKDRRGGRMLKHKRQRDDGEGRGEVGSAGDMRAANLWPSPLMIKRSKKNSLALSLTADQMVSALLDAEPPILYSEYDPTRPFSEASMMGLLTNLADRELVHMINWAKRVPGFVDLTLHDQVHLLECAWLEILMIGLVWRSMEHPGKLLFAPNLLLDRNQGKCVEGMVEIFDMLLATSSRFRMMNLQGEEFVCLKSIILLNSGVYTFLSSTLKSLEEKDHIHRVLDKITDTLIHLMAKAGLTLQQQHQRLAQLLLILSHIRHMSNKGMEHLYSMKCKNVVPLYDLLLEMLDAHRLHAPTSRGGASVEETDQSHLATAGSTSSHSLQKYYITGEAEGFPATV
Assay: In-cell western (ICW) ER degradation assay in T47D cells
Type: cell-based
Conditions: maximal ER degradation, 16 hrs
READOUT: T47D Dmax %

Some solved entries appear below for comparison.
| MOLECULE | T47D Dmax % |
| --- | --- |
| COc1cc(N2CCC3(CC2)CC(CN2CCC4(CC2)COc2c4ccc4c2CN(C2CCC(=O)NC2=O)C4=O)C3)c(F)cc1[C@H]1c2ccc(O)cc2OC[C@H]1c1ccccc1 (stereo partly drawn) [Compound A130] | A (“A”; >=75%) |
| O=C1CCC(N2Cc3cc(N4CCN(CC5CC6(CCN(c7ccc([C@@H]8c9ccc(O)cc9OC[C@@H]8c8ccccc8)cn7)CC6)C5)CC4)ccc3C2=O)C(=O)N1 (single isomer, unassigned) [Compound A68] | A (“A”; >=75%) |
| O=C1CCC(N2Cc3cc4c(cc3C2=O)OC[C@@H]2CN(CC3CCC5(CC3)CN(c3ccc([C@@H]6c7ccc(O)cc7OC[C@@H]6c6ccccc6)cc3)C5)CCN42)C(=O)N1 (stereo partly drawn) [Compound A53] | A (“A”; >=75%) |
| O=C1CCC(N2Cc3cc4c(cc3C2=O)OC[C@@H]2CN(CC3CCC5(CC3)CN(c3ccc([C@@H]6c7ccc(O)cc7OC[C@@H]6c6ccccc6)cc3)C5)CCN42)C(=O)N1 (single isomer, unassigned) [Compound A58] | B (“B”: >50% and <75%) |
| O=C1CCC(NC(=O)c2ccc(N3CCC(CN4CCN(c5ccc([C@H]6c7ccc(O)cc7OC[C@H]6c6ccccc6)cc5)CC4)CC3)cn2)C(=O)N1 (stereo partly drawn) | B (“B”: >50% and <75%) |
| O=C1CC[C@@H](N2Cc3cc4c(cc3C2=O)OC[C@@H]2CN(C[C@H]3COC5(CCN(c6ccc([C@H]7c8ccc(O)cc8OC[C@H]7c7ccccc7)cc6)CC5)C3)CCN42)C(=O)N1 | B (“B”: >50% and <75%) |

Attention now shifts to the item below.
molecule COc1cc(N2CCC(CN3CCN(c4ccc(C(=O)NC5CCC(=O)NC5=O)nc4)CC3)CC2)c(F)cc1[C@H]1c2ccc(O)cc2OC[C@H]1c1ccccc1 (stereo partly drawn) [Compound A110] , T47D Dmax % observed: B (“B”: >50% and <75%)

These data points were gathered from patent US20260000676A1.
